These entries and their values trace back to PubChem BioAssay (NCI).

Assay: NCI Yeast Anticancer Drug Screen. Data for the mlh1 rad18 strain (AID 175)
Conditions: S. cerevisiae mlh1 rad18 strain growth inhibition; at 50.0 µM; hits give high values
About 79,000 compounds went through this panel and 15% of them were active in at least one assay; those are over-represented in the sample as a whole.
Below: a set of entries, each annotated with reported growth inhibition.
Dear colleague, please return just the value in %, with no unit written.

Recorded growth inhibition, per entry:
{"compound": "CCCCn1c(-c2ccccc2)cs/c1=N\\NC(=O)Cn1c(C)nc2ccccc21", "growth inhibition [%]": -16.8}
{"compound": "CCNC(=O)c1csnn1", "growth inhibition [%]": 2}
{"compound": "Cc1cccc(Cl)c1NC(=O)Nc1ccc(C#N)cc1", "growth inhibition [%]": -1}
{"compound": "CCN(CC)c1ccc(NC(=S)Nc2ccc(N(CC)CC)cc2)cc1", "growth inhibition [%]": -22.9}
{"compound": "O=C1c2c(-c3ccccc3)ccc(-c3ccccc3)c2C2(O)OC1(O)c1c(-c3ccccc3)ccc(-c3ccccc3)c1C2=O", "growth inhibition [%]": -13.9}

# get_value(readout='growth inhibition', item= `Cc1cc(N(CCC#N)CCC#N)ccc1/C(N=Nc1ccccc1)=N\NC(=O)c1cc(Cl)ccc1O` )
30.9

Bench note: what growth inhibition did `CCOC(=O)C(CC[C@@H]1N[C@H](C(N)=O)Cc2c1[nH]c1ccccc21)C(=O)OCC` show?
-13.7

Return reported growth inhibition; argument: `O=c1c2ccccc2nc(-c2ccccc2)n1-c1cc(C(F)(F)F)cc(C(F)(F)F)c1`
5.95

Param item = CCOC(=O)C1=CN(C)C=C(Br)C1C#N (stereo not given) ; retrieve measured growth inhibition.
-4.75

State the recorded growth inhibition for this entry: `COc1cc(/C=N/N=C(\N)NO)cc(OC)c1OC`
4.55
